assay: yeast display, Sf9 membrane polyspecificity reagent, FACS + sequencing; frameworks hold sequencing errors
READOUT_TYPE: polyreactivity (PSR sort gate)

QVQLVESGGGLVQAGGSLRLSCAASGSIFWQTPMGWYRQAPGKERELVAAITRSGGSTYYADSVKGRFTISRDNAKITVYLQMNSLKPEDTLVYYCKKYGYKGGVGDDYWGQGTQVTVSS ... high polyreactivity
QVQLVESGGGLVQAGGSLRLSCPASGYILHKYAMGSYRQAPGKERELVATISGGGGSTYYADSVKGRFTISRDNAKNTVYLQMNSLKPEDTAVYYCAIEYPWLPRSYEYGGQGTQVTVSS ... low polyreactivity
QVQLVESGGGLVQAGGSLRLSCAASGFTFFYNAMGRYRQAPGKEREFVAAISGRGGTTYYADSVKGRFTISRDNAKNTVYLEMNSLKPEDTAVYYCAARSVSTLRYTSCKLSDDYWGQGTQVTVSS ... high polyreactivity
QVQLVESGGGLVQAGGSLRLSCAASGRTFYVYAMGWYRQAPGKERELVAAISWRGGSTYYADSVKGRFTISRDNAKNTVYLQMNSLKPEDTAVYYCATAGGDWYGVDYWGQGTQVTVSS ... low polyreactivity
QVQHVESGGGLVQAGGSLRLSCASSGFIFYKYVMGWYRQAPGKERELVAAINWSGGSTYYADSVKGRFTISRDNAKNTVYLQMNSLKPDVTAVYYCAALSQYRYDYWGQGTQVTVSS ... high polyreactivity
QVQLVESGGGLVQAGGSLRLSCAASGLTFVDYDMGWYRQAPGKERELVADINSGGYTYYADSVKGRFTISRDNAKNTVYLQMNSLKPEDTAVYYCAADDGWGYISSYDYEYWGQGTQVTVSS ... high polyreactivity
QVQLVESGGGLVQAGGSLRLSCAASGSIFLRNAMGWYRQAPGKERALVAAISWGGRTYYADSVKGRFTISRDNAKNTVYLQMNSLKPEDTAVYYCAADGTWVRSPHFYYWGQGTQVTVSS ... low polyreactivity

Recorded polyreactivity (PSR sort gate) (sequence "QVQLVESGGGLVQAGGSLRLSCAASGSTYVQYAMGWYRKAPGKERELVPVISYSGGSTYYADSVKGRFTISRDNAKNTVYLQMNSLKPEDTAVYYCAAVYGGGHRKMDYWGQGTQVTVSS" ): low polyreactivity

---

assay: yeast display, Sf9 membrane polyspecificity reagent, FACS + sequencing; frameworks hold sequencing errors
READOUT_TYPE: polyreactivity (PSR sort gate)

QVQLVESGGGLVQAGGSLRLSCSASGFTFWVNAMGWYRQAPGKERELVAAISRRGGRTYYADSVKGRYTISRDNAKNTVYLQMNSLKPEDTAVYYCNKEDVGCSESDYWGQGTQVTVSS ... high polyreactivity
QVQLVESGGGLVQAGGSLRLSCAASGSIFWGYAMGWYRQAPGKERELVAAIRNGGSTNYADSVKGRFTISRDNAKNTVYLQMNSLKPEDTAVYYCAKYYYYLRSARKYDYWGQGTQVTVSS ... high polyreactivity
QVQLVESGGGLVQAGGSLRLSCAASGIIFRNYAMGWYRQAPGKERELVATIRYRGGRTYADSVKGRFTISRDNAKNTVYLQMNSLKPEDTAVYYCNTYARYAYLTGRMEYWGQGTQVTVSS ... high polyreactivity

---

experiment: yeast display, Sf9 membrane polyspecificity reagent, FACS + sequencing; frameworks hold sequencing errors
READOUT_TYPE: polyreactivity (PSR sort gate)

Example sequences with recorded polyreactivity (PSR sort gate):
QVQLVESGGGLVQAGGRLRLSCAASGSTFWLNAMGWSRQATGKERELFADSSRSGGSTYYADSVKGRFTISRDNAKNTVYLQMNSLKPEDTAVYYCAADSWPDQFTVYPGGDYWGQGTQVTVSS ... low polyreactivity
QVQLVESGGGLVQAGGSLRLSCAASGRIFWGNAMGWYRQAPGKEWELVAAITRRGGTTFYADSVKGRFTISRDNAKNTVYLQMNSLKPEDTAVYYCAARRYGQYDGYDSWGQGTQVTVSS ... high polyreactivity
QVQLVESGGGLVQAGGSLRLSCAASGRIFGDNGMGWYRQAPGKERELVTYADSVKGRFTISRDNAKNTVYLQLNSLQPEDTAVYYCYSPFGGKYDYWGQGTQVTVSS ... low polyreactivity
QVQLVESGGGLYQAGGSLRLSCAASGRIFRYYAMGWYRQAPGKERELVAAINWSGGSTYYADSVKGRFTISRDNAKNTVYLQMNSLKPEDTAVYYCNTRWYVGDDWGQGTQVTVSS ... high polyreactivity
QVHLVESGGGLVQAGGSLRLSCAASGSTFRIYSMGWYRQAPGKERELVAGITGNGGSTRYADSVKGRFTISRDNAKNTVYLQMNSLKPEDTAVYYCAARWTRQRYRTSYYSWGQGTQVTVSS ... high polyreactivity

With those in mind, consider the next sequence.
Recorded polyreactivity (PSR sort gate) (sequence "QVQLVESGGGLVQAGGSLRLSCAASGSTFRIYAMGWYRQAPGKERELVAAITSGGDTNYADSVKGRFTISRDNAKNTVYLQMNSLKPEDTAVYYCAADGHSVYTELDYWGQGTQVTVSS" ): low polyreactivity
